Origin of measurements: paper PMC5497803

- Assay Target: p110δ (Homo sapiens, UniProt O00329)
- Sequence (O00329 whole entry, species assumed, one chain of several): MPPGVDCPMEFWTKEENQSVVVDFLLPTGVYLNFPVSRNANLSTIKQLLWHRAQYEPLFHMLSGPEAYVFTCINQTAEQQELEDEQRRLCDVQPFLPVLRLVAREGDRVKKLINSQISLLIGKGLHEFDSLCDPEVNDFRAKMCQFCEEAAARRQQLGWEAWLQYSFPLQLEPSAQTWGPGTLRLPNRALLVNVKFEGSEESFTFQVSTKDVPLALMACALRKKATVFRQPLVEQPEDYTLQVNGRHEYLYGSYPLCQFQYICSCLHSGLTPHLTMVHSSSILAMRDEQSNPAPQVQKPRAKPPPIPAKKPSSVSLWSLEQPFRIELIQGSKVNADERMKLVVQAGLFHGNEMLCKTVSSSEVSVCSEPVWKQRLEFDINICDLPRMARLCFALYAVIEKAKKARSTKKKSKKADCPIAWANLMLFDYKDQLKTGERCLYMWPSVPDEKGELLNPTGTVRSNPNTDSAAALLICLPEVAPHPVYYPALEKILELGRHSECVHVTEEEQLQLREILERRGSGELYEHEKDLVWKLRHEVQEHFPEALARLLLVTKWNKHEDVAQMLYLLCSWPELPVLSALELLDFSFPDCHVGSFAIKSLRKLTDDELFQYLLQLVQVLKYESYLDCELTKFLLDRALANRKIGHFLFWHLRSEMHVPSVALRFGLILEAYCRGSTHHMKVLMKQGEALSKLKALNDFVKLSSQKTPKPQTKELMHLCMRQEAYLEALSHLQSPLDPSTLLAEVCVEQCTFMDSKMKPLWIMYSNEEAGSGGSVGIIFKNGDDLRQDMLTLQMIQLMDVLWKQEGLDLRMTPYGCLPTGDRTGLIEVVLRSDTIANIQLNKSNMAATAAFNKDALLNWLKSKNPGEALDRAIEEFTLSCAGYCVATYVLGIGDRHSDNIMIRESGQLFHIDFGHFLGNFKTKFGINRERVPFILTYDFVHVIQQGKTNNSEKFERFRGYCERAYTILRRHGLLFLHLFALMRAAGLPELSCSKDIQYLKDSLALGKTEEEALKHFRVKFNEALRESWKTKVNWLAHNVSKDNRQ
- Assay Overview: PI3K ELISA kinase assay, recombinant class I PI3K
Readout Kind: IC50 (nM)
One number for each entry, in nM.

Noted for c1cnc2ccc(Nc3nc(NC4CC4)c4nc[nH]c4n3)cc2c1 : its IC50 reads 3.3

====

- Assay Target: p110α (Homo sapiens, UniProt P42336)
- Sequence (P42336 whole entry, species assumed): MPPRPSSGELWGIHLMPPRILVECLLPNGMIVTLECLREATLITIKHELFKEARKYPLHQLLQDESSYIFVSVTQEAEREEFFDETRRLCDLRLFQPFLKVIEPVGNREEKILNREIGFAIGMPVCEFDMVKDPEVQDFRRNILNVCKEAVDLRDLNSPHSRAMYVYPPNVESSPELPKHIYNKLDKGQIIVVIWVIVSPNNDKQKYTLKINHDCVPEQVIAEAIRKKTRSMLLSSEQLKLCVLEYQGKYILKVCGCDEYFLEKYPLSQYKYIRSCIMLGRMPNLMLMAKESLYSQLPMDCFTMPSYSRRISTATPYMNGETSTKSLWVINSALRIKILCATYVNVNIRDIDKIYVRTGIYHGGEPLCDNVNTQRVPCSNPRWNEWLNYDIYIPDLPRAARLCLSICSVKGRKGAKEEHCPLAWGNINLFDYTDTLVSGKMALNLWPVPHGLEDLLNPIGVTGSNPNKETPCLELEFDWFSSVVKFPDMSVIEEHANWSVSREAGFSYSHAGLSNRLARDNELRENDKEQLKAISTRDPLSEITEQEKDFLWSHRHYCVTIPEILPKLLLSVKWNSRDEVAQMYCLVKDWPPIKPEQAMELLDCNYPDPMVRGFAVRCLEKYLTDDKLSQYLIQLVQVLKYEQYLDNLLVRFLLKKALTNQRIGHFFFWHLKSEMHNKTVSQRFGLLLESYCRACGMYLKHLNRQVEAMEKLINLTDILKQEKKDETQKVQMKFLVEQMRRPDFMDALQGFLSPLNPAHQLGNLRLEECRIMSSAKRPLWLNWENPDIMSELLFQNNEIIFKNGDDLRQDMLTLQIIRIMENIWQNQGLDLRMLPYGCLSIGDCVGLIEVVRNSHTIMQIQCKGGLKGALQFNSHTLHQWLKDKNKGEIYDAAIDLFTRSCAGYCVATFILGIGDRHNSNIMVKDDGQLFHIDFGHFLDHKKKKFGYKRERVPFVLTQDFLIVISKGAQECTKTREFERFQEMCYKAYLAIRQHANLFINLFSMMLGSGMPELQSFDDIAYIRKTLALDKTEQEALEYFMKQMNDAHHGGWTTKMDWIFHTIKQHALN
- Sequence (P27986 whole entry partner, species assumed): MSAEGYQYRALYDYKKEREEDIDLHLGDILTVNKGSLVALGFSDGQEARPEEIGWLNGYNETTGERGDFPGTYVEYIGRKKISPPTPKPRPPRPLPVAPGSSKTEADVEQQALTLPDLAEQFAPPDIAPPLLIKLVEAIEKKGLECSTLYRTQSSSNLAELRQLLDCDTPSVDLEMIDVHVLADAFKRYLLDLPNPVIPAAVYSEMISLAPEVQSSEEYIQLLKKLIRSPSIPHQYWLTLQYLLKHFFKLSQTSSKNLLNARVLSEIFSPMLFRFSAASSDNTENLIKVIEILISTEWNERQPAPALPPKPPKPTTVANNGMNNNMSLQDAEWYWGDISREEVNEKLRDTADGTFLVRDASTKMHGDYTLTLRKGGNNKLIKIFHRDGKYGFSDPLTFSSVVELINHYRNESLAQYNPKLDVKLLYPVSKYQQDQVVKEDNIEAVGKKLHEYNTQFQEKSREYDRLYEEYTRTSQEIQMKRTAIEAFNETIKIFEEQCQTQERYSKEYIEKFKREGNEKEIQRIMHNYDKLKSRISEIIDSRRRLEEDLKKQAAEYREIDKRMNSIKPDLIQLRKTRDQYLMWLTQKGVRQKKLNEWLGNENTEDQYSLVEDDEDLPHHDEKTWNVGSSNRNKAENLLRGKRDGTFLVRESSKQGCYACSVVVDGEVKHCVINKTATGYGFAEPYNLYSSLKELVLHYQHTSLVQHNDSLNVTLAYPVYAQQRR
Readout Kind: IC50 (nM)
One number for each entry, in nM.

Noted for c1cnc2ccc(Nc3nc(NC4CC4)c4nc[nH]c4n3)cc2c1 : its IC50 reads 993
